Recorded values, source BindingDB's records for doi:10.1021/acs.jmedchem.8b00931.

Reported pEC50 values follow for various compounds
Assay: Inhibition of Rhinovirus B14 capsid infected in human HeLa Rh cells assessed as reduction in virus-induced cytopathic effect after 3 days by MTS assay
Would you please state pEC50, meaning minus log10 of the concentration in mol/L, as a bare number?

Below, each entry is followed by its recorded pEC50 result.
INSERT INTO results (compound, readout_type, reported_value) VALUES
  ('O=[N+]([O-])c1cc(Br)ccc1CC(O)c1ccc(-n2cccn2)cc1 (centres undefined)', 'pEC50', 6.60),
  ('Cn1nc(C(F)(F)F)cc1-c1ccc(CC(O)c2ccc(-n3cccn3)cc2)c([N+](=O)[O-])c1 (centres undefined)', 'pEC50', 6.30),
  ('O=[N+]([O-])c1cc(F)ccc1CC(O)c1ccc(-n2cccn2)cc1 (centres undefined)', 'pEC50', 5.06);

Recorded pEC50 of COC(=O)c1ccc(CC(O)c2ccc(-c3ccncc3)cc2)c([N+](=O)[O-])c1 (centres undefined) , please. 5.19

Need pEC50 of O=[N+]([O-])c1cc(Cl)ccc1CC(O)c1ccc(-n2cccn2)cc1 (centres undefined) , thanks. 6.89

Using the record for O=[N+]([O-])c1cc(-c2cncs2)ccc1CC(O)c1ccc(-n2cncn2)cc1 (centres undefined) , report its pEC50. 6.40

Which value of pEC50 has been reported for Cn1cc(-c2ccc(CC(O)c3ccc(-n4cccn4)cc3)c([N+](=O)[O-])c2)cn1 (centres undefined) in the records? 6.70
